target: sGC (Homo sapiens, UniProt Q02153); construct: Minimum effective concentration required to stimulate cGMP production in LNCap cells; endogenous in cells; experiment: cGMP expression test based on LNCap cells (HTRF, with ODQ); details: cGMP production in LNCap cells
Sequence (Q02153 whole entry): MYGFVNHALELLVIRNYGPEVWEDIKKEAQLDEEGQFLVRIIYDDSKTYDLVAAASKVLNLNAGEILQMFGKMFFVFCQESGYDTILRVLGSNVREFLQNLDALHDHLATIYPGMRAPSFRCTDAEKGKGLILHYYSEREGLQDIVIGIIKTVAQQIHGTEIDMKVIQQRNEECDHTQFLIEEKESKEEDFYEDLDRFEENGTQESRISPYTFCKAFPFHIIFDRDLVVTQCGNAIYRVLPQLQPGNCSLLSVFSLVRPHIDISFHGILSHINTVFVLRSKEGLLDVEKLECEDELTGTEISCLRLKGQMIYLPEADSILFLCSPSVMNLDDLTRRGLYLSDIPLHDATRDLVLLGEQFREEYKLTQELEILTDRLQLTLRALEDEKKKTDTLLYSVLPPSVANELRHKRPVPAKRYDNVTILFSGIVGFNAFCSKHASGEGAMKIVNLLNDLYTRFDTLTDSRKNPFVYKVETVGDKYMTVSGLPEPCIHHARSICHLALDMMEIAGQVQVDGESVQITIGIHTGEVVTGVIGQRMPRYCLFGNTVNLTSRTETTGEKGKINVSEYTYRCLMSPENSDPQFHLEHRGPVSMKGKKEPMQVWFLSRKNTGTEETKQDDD
Sequence (Q02108 whole entry partner): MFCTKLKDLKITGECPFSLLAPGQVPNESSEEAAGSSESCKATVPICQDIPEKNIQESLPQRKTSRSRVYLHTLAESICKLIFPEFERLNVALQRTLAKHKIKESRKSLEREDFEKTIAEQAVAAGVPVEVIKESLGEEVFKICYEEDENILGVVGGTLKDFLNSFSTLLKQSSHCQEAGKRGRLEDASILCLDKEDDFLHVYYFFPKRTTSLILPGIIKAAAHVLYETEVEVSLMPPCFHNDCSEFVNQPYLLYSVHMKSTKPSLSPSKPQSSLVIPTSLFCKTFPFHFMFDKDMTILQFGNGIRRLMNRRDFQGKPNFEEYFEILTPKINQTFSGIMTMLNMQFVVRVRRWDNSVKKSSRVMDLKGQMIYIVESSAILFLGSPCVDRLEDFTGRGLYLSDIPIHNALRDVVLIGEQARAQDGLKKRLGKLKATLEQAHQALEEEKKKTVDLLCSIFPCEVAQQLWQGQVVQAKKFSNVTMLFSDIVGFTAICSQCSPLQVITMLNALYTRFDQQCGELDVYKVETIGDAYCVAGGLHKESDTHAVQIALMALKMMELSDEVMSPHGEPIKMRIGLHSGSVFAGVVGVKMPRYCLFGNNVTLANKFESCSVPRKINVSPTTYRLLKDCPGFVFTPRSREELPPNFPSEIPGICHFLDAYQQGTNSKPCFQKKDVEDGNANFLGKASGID
Metric Name: pEC50
Hey, just a heads up that pEC50 is the negative log base 10 of the concentration in molar.

Task item: Quick one: pEC50 of COC12CC([C@H](CC(=O)O)c3ccc(Cl)c(NC(=O)[C@H](c4ccc(Cl)cc4)[C@@H](C)C(F)(F)F)c3)(C1)C2 ?
Reply: 7.67

====

assay: In vitro hepatocyte metabolic stability, mouse; type: in vitro ADME; details: hepatocytes (cryopreserved, suspension), 0.5×10^6 cells/mL, read-out: CLint (liver)
Metric Name: CLint scaled at 1 μM (mL/min/kg)
Number in mL/min/kg, nothing else.

Task item: Quick one: CLint scaled at 1 μM of COC12CC([C@H](CC(=O)O)c3ccc(Cl)c(NC(=O)[C@H](c4ccc(Cl)cc4)[C@@H](C)C(F)(F)F)c3)(C1)C2 ?
Reply: 193
